Source: patent EP0373216A1

tested on: M. euteus ATCC 9341; assay: In vitro antibacterial activity, agar disc dilution method; format: cell-based; conditions: M. euteus ATCC 9341; Mueller Hinton agar, 10^6/ml, 37°C for 16 hours; read-out: minimum growth inhibitory concentration (MIC)
Reported Property: MIC (µg/mL)

* Nc1nc(/C(=N/Oc2ccccc2)C(=O)N[C@@H]2C(=O)N3C(C(=O)[O-])=C(C[n+]4cc(C(=O)O)c5cc(O)c(O)cc5c4Cl)CS[C@H]23)cs1 | 0.8
* CC(=O)Oc1cc2cc[n+](CC3=C(C(=O)[O-])N4C(=O)[C@@H](NC(=O)/C(=N\Oc5ccccc5)c5csc(N)n5)[C@H]4SC3)cc2cc1O | 1.6
* Nc1nc(/C(=N/Oc2ccccc2Cl)C(=O)N[C@@H]2C(=O)N3C(C(=O)[O-])=C(C[n+]4ccc5cc(O)c(O)cc5c4)CS[C@H]23)cs1 | 0.8
* Nc1nc(/C(=N/Oc2ccc(-c3ccccc3)cc2)C(=O)N[C@@H]2C(=O)N3C(C(=O)[O-])=C(C[n+]4ccc5cc(O)c(O)cc5c4)CS[C@H]23)cs1 | 0.8

###

test system: P. aeruginosa NCTC 1049; test: In vitro antibacterial activity, agar disc dilution method; type: cell-based; conditions: Pseudomonas aeruginosa, NCTC1049; P. aeruginosa NCTC 1049; Mueller Hinton agar, 10^6/ml, 37°C for 16 hours; read-out: minimum growth inhibitory concentration (MIC)
Reported Property: MIC (µg/mL)

* Nc1nc(/C(=N/Oc2cccc(C(=O)O)c2)C(=O)N[C@@H]2C(=O)N3C(C(=O)[O-])=C(C[n+]4ccc5cc(O)c(O)cc5c4)CS[C@H]23)cs1 | 0.2
* Nc1nc(/C(=N/Oc2ccccc2Cl)C(=O)N[C@@H]2C(=O)N3C(C(=O)[O-])=C(C[n+]4ccc5cc(O)c(O)cc5c4)CS[C@H]23)cs1 | 0.8
* Nc1nc(/C(=N/Oc2ccc(Cl)cc2)C(=O)N[C@@H]2C(=O)N3C(C(=O)[O-])=C(C[n+]4ccc5cc(O)c(O)cc5c4)CS[C@H]23)cs1 | 0.8
* Nc1nc(/C(=N/Oc2ccc(-c3ccccc3)cc2)C(=O)N[C@@H]2C(=O)N3C(C(=O)[O-])=C(C[n+]4ccc5cc(O)c(O)cc5c4)CS[C@H]23)cs1 | 0.8
* Nc1nc(/C(=N/Oc2ccccc2)C(=O)N[C@@H]2C(=O)N3C(C(=O)[O-])=C(C[n+]4ccc5cc(O)c(O)cc5c4)CS[C@H]23)cs1 | 0.1
* Nc1nc(/C(=N/Oc2ccccc2)C(=O)N[C@@H]2C(=O)N3C(C(=O)[O-])=C(C[n+]4ccc5cc(O)c(O)cc5c4)CS[C@H]23)ns1 | 0.2
* Nc1nc(/C(=N/Oc2ccccc2)C(=O)N[C@@H]2C(=O)N3C(C(=O)[O-])=C(C[n+]4cc(C(=O)O)c5cc(O)c(O)cc5c4Cl)CS[C@H]23)cs1 | 1.6

###

Below, each entry is listed alongside its reported MIC.
tested on: M. euteus ATCC 9341; test: In vitro antibacterial activity, agar disc dilution method; format: cell-based; details: M. euteus ATCC 9341; Mueller Hinton agar, 10^6/ml, 37°C for 16 hours; read-out: minimum growth inhibitory concentration (MIC)
Reported Property: MIC (µg/mL)

• Nc1nc(/C(=N/Oc2ccccc2)C(=O)N[C@@H]2C(=O)N3C(C(=O)[O-])=C(C[n+]4ccc5cc(O)c(O)cc5c4)CS[C@H]23)ns1 [Compound XI] = 0.01
• CC(C)(O/N=C(\C(=O)N[C@@H]1C(=O)N2C(C(=O)[O-])=C(C[n+]3ccc4cc(O)c(O)cc4c3)CS[C@H]12)c1csc(N)n1)C(=O)O [Compound A, reference compound] = 0.2
• Nc1nc(/C(=N/Oc2ccc(CC(=O)O)cc2)C(=O)N[C@@H]2C(=O)N3C(C(=O)[O-])=C(C[n+]4ccc5cc(O)c(O)cc5c4)CS[C@H]23)cs1 [Compound V] = 1.6
